Test system: WT Max(13-93) synthetic (M65Nle)
Experiment: PBM 8-mer E-score (E-score (rank enrichment, -0.5 to 0.5)); higher = stronger preferential binding
Whole data set: some 33,000 sequences, median “E-score (rank enrichment, -0.5 to 0.5)” near -0.0075, cut for the highest 2% near 0.23. For the sample, the highest values were picked, then their nearest neighbours and some sequences at random.

{"sequence_content": "GTTTAAAC", "test_system": "WT Max(13-93) synthetic (M65Nle)", "PBM 8-mer E-score": 0.254}
{"sequence_content": "ATTTAAAG", "test_system": "WT Max(13-93) synthetic (M65Nle)", "PBM 8-mer E-score": 0.0962}
{"sequence_content": "ACAACCCT", "test_system": "WT Max(13-93) synthetic (M65Nle)", "PBM 8-mer E-score": -0.0273}
{"sequence_content": "GTTTAAAA", "test_system": "WT Max(13-93) synthetic (M65Nle)", "PBM 8-mer E-score": 0.0508}
{"sequence_content": "CGTGGTAA", "test_system": "WT Max(13-93) synthetic (M65Nle)", "PBM 8-mer E-score": 0.246}
{"sequence_content": "CGTGGAAA", "test_system": "WT Max(13-93) synthetic (M65Nle)", "PBM 8-mer E-score": 0.267}
{"sequence_content": "CCAACCCC", "test_system": "WT Max(13-93) synthetic (M65Nle)", "PBM 8-mer E-score": -0.0495}
{"sequence_content": "ACACCGCA", "test_system": "WT Max(13-93) synthetic (M65Nle)", "PBM 8-mer E-score": -0.148}
{"sequence_content": "CGTGGAAG", "test_system": "WT Max(13-93) synthetic (M65Nle)", "PBM 8-mer E-score": 0.176}
{"sequence_content": "ATTTAAAC", "test_system": "WT Max(13-93) synthetic (M65Nle)", "PBM 8-mer E-score": 0.263}
{"sequence_content": "AAAACGTC", "test_system": "WT Max(13-93) synthetic (M65Nle)", "PBM 8-mer E-score": 0.0934}

* * *

We begin with a simple list: items and their reported PBM 8-mer E-score.
Test system: WT Max(13-93) synthetic (M65Nle)
Assay: PBM 8-mer E-score (E-score (rank enrichment, -0.5 to 0.5)); higher = stronger preferential binding
Over roughly 33,000 sequences, “E-score (rank enrichment, -0.5 to 0.5)” has its median near -0.0075; the highest 2% begin near 0.23. The full list was thinned out, with the highest values kept by preference.

{"sequence_content": "CTAACACA", "PBM 8-mer E-score": 0.121}
{"sequence_content": "ATCAGGTG", "PBM 8-mer E-score": 0.0403}
{"sequence_content": "ACATGCAG", "PBM 8-mer E-score": 0.126}
{"sequence_content": "GGTTTCAA", "PBM 8-mer E-score": 0.077}
{"sequence_content": "CACAATAC", "PBM 8-mer E-score": 0.204}
{"sequence_content": "ACTAGACT", "PBM 8-mer E-score": 0.0207}
{"sequence_content": "ATAACATC", "PBM 8-mer E-score": 0.187}
{"sequence_content": "AATGATCC", "PBM 8-mer E-score": -0.122}
{"sequence_content": "ACATGCGG", "PBM 8-mer E-score": 0.14}
{"sequence_content": "CCATGCAC", "PBM 8-mer E-score": 0.0862}
{"sequence_content": "AAATCGCT", "PBM 8-mer E-score": -0.0979}
{"sequence_content": "AGCCGTCA", "PBM 8-mer E-score": -0.0749}
{"sequence_content": "GCTGATGA", "PBM 8-mer E-score": -0.087}
{"sequence_content": "TCATGCAA", "PBM 8-mer E-score": 0.174}
{"sequence_content": "CGGCAGAC", "PBM 8-mer E-score": -0.218}
{"sequence_content": "AATTACAA", "PBM 8-mer E-score": 0.251}
{"sequence_content": "CCATGCAA", "PBM 8-mer E-score": 0.127}
{"sequence_content": "ATAACATA", "PBM 8-mer E-score": 0.266}
{"sequence_content": "GACAACCC", "PBM 8-mer E-score": 0.0334}
{"sequence_content": "GATGGTTA", "PBM 8-mer E-score": 0.0493}
{"sequence_content": "ACATGCAA", "PBM 8-mer E-score": 0.185}
{"sequence_content": "CATGGTCA", "PBM 8-mer E-score": 0.291}
{"sequence_content": "ATAACACC", "PBM 8-mer E-score": 0.106}
{"sequence_content": "ATAACACA", "PBM 8-mer E-score": 0.181}
{"sequence_content": "GAATAGGC", "PBM 8-mer E-score": 0.113}
{"sequence_content": "AAATGCGT", "PBM 8-mer E-score": 0.0113}
{"sequence_content": "AATTACAT", "PBM 8-mer E-score": 0.135}
{"sequence_content": "ATAACATG", "PBM 8-mer E-score": 0.231}
{"sequence_content": "GCTCCTTA", "PBM 8-mer E-score": -0.0526}
{"sequence_content": "AACCAGCA", "PBM 8-mer E-score": -0.0798}
{"sequence_content": "ATAACACG", "PBM 8-mer E-score": 0.307}
{"sequence_content": "CATGGTCG", "PBM 8-mer E-score": 0.219}
{"sequence_content": "GGAGCTTA", "PBM 8-mer E-score": -0.168}
{"sequence_content": "GAAAACTC", "PBM 8-mer E-score": -0.0313}
{"sequence_content": "AAAATGTG", "PBM 8-mer E-score": 0.205}
{"sequence_content": "GCATGCAC", "PBM 8-mer E-score": 0.277}
{"sequence_content": "CCGACACA", "PBM 8-mer E-score": -0.052}

* * *

Test system: WT Max(13-93) synthetic (M65Nle)
Assay: PBM 8-mer E-score (E-score (rank enrichment, -0.5 to 0.5)); higher = stronger preferential binding
Over roughly 33,000 sequences, “E-score (rank enrichment, -0.5 to 0.5)” has its median near -0.0075; the highest 2% begin near 0.23. The sample holds the highest values, similar sequences and a random draw of the others, so the mix is not that of the screen.
We begin with a simple list: items and their reported PBM 8-mer E-score.

{"sequence_content": "AAGGTTGA", "test_system": "WT Max(13-93) synthetic (M65Nle)", "PBM 8-mer E-score": 0.14}
{"sequence_content": "CGACACCG", "test_system": "WT Max(13-93) synthetic (M65Nle)", "PBM 8-mer E-score": -0.265}
{"sequence_content": "ACATTGTG", "test_system": "WT Max(13-93) synthetic (M65Nle)", "PBM 8-mer E-score": 0.26}
{"sequence_content": "ATCCCTCC", "test_system": "WT Max(13-93) synthetic (M65Nle)", "PBM 8-mer E-score": 0.0287}
{"sequence_content": "CCATAGAA", "test_system": "WT Max(13-93) synthetic (M65Nle)", "PBM 8-mer E-score": 0.0354}
{"sequence_content": "CATTATTC", "test_system": "WT Max(13-93) synthetic (M65Nle)", "PBM 8-mer E-score": 0.137}
{"sequence_content": "ACATTGTC", "test_system": "WT Max(13-93) synthetic (M65Nle)", "PBM 8-mer E-score": 0.19}
{"sequence_content": "GCGCTCAC", "test_system": "WT Max(13-93) synthetic (M65Nle)", "PBM 8-mer E-score": -0.00351}
{"sequence_content": "CATTATTA", "test_system": "WT Max(13-93) synthetic (M65Nle)", "PBM 8-mer E-score": 0.262}
{"sequence_content": "CCGTTTAC", "test_system": "WT Max(13-93) synthetic (M65Nle)", "PBM 8-mer E-score": 0.0331}
{"sequence_content": "AATTATAC", "test_system": "WT Max(13-93) synthetic (M65Nle)", "PBM 8-mer E-score": 0.145}
{"sequence_content": "ATGACAAG", "test_system": "WT Max(13-93) synthetic (M65Nle)", "PBM 8-mer E-score": 0.119}
{"sequence_content": "AATTATAA", "test_system": "WT Max(13-93) synthetic (M65Nle)", "PBM 8-mer E-score": 0.214}
{"sequence_content": "CAGAATAG", "test_system": "WT Max(13-93) synthetic (M65Nle)", "PBM 8-mer E-score": 0.0142}
{"sequence_content": "AGTTATTG", "test_system": "WT Max(13-93) synthetic (M65Nle)", "PBM 8-mer E-score": 0.127}
{"sequence_content": "AGTTATTA", "test_system": "WT Max(13-93) synthetic (M65Nle)", "PBM 8-mer E-score": 0.245}
{"sequence_content": "ATGACAAC", "test_system": "WT Max(13-93) synthetic (M65Nle)", "PBM 8-mer E-score": 0.166}
{"sequence_content": "ATGACAAT", "test_system": "WT Max(13-93) synthetic (M65Nle)", "PBM 8-mer E-score": 0.264}
{"sequence_content": "ACATTGTA", "test_system": "WT Max(13-93) synthetic (M65Nle)", "PBM 8-mer E-score": 0.153}
{"sequence_content": "CCGATCCC", "test_system": "WT Max(13-93) synthetic (M65Nle)", "PBM 8-mer E-score": -0.173}
{"sequence_content": "ACTGCGCT", "test_system": "WT Max(13-93) synthetic (M65Nle)", "PBM 8-mer E-score": 0.0213}
{"sequence_content": "ACCGCACC", "test_system": "WT Max(13-93) synthetic (M65Nle)", "PBM 8-mer E-score": -0.0552}
